# Assay Method Text: yeast display, Sf9 membrane polyspecificity reagent, FACS + sequencing; frameworks hold sequencing errors
Reported Property: polyreactivity (PSR sort gate)

Entry Sequence | Reported Property | Endpoint Value
QVQLVESGGGLVQAGGSLRLSCAASGRTFGGNAMGWYRQAPGKERELVAAITGRGGSTFYADSVKGRFTISRDNAKNTVYLQMNSLKPEDTAVYYCAKQFKRGYGYDYWGQGTQVTVSS | polyreactivity (PSR sort gate) | low polyreactivity
QVQLVESGGGLFQEGGSLRLSCAASGRTLRYYAMGWYRQAPGKVRELVAAISSGGTTNYADSVKGRFTISRDNAKNTVYFQMKSLKPEDTAVYYFAASYRRFRFSHYDYWGQVTQVTVSS | polyreactivity (PSR sort gate) | high polyreactivity
QVQLVESGGVLDQAGGSLRLSCAASGRIYFNKAMGWYRPAPGKEWELVAAINAGGRTNYADSVKGRFTISRDNEKNTVFLHMTSLKQEDTSVYYCNADDNPVWEYDYWGQGTQVTVSS | polyreactivity (PSR sort gate) | low polyreactivity
QVQHEESGGGLVQAGGRLRLSCAASGRIFKQYALGGYRQAPGKERELVAAISVRGGITYYADSVKGRFTISRDNAMNTVYLQMNSLKPEDTAVYYCAKRSFRTHTYDYWGHGTQVTVSS | polyreactivity (PSR sort gate) | low polyreactivity
QVQLVESGGGLVQAGGSLRLSCAASGSIFSLYAMGWYRQAPGKEWELVAAISRGGSTNYADSVKGRFTISRDNAKNTVYLQMNSLKPEDTAVYYCNAGFGVRRKHITFYTWYDYWGQGTQVTVSS | polyreactivity (PSR sort gate) | low polyreactivity
QVQLVESGGGLVQAGGSLRLSCAASGRTFFDYAMGWYRQAPGKERELVAAINWSGGRTYYADSVKGRFTISRDNAKNTVYLQMNTLKPEDTAVYYCAKPFSSNSWSHGYWGQGTQVTVSS | polyreactivity (PSR sort gate) | low polyreactivity
QGQLVESWGGLVQAGGSLRLICAASGFNLGRYAKGWYRQAPGKERELVAAISIGGRTNYADSVKERFTISRDNSKTSVYLHLKSLKPEVTAVYYSAADVRGSAYTTGDYWGQGTQVTVTS | polyreactivity (PSR sort gate) | low polyreactivity
QVQLVESGGGLVQAGGSLRLICAASGFTFYRYAMGWYRQAPGKERELVAAITRSGGSTYYADSVKGRFTISRDNAKNTVYLQMNSLKPEDTAVYYCARTYWITNSKFRDYLGAYGGDYWGQGTQVTVSS | polyreactivity (PSR sort gate) | high polyreactivity
QVQLVESGGGLVQAGGSLRLSCAASGFIFVQNTMGWYRQAPGKERELVAAISRGTGRTYYADSVKGRFTISRDNAKNTVYLQMNSLKPDDTAVYYCNVVYPQRYRSREDDYWGQGTQVTVSS | polyreactivity (PSR sort gate) | high polyreactivity
QVQLVESGGGVVQAGGSLGLSCAASGGIFAPYPMGWNRQAPGKERELAAAISSSDGSTYYADSVKGRFTISRDNAKNTVYLQMNSLKTEDTAVYYCAADYREDYGYWGQGTQVTVSS | polyreactivity (PSR sort gate) | low polyreactivity
QVQLVESGGGLVQAGGSLRLSCAASGSTFGSYAMGWYIQAPGKERELVAAISRAGSTYADSVKGRFTISRDNAKNTVYLQMNSLKPEDTAVYYCAKRDNALYYGYDYWGQGTQVTVSS | polyreactivity (PSR sort gate) | low polyreactivity

====

# Assay Method Text: yeast display, Sf9 membrane polyspecificity reagent, FACS + sequencing; frameworks hold sequencing errors

Entry Sequence | polyreactivity (PSR sort gate)
QVQLVESGGGLVQAGGSLRLSCSASGRIFQYYAMGWYIKAPGKERELVAAISGRGTSTYYADSVKGRFTISRDNAKNTVYLEMNSLKQEDTAVYYCNADINYKSYFIHTFTIIPYGYWGQGTQVTVSS | low polyreactivity
QVQLVESGGCLVQAGGSLRLSCAASGIIFTYYAMGWSRQAPGKESELVARISSSGGRTYYADSVKGRVTISRDNGKNTVYLQMNSLNPEDTAVYYCAAAIVSYGRNDYWGQGTQVTVSS | high polyreactivity
QVQLVESGGGLVQAGGSLRLSCAASGLTFIYYAMGWYRQAPGKERELVAAISTSGASTYYADSVKGRFTISRDNAKNTVYLQMNSLKPEDTAVYYCNAEYFGEYRDYGYWGQGTQVTVSS | low polyreactivity
QVQLVESGGGLVQAGGSLRLSCAASGLIFARYVMGWYRHAPGKERELVADIDKGGGSTYYADSVKGRFTISRDNAKNTDSLQMNSLKPEDSSVYYCIADFDGWWWDDYRGQGTQVTVSS | high polyreactivity
QVQLVESGGGLVQAGGSLRLSCAASGIIFHYYAMGWSRPEPGKERELVAAITSSGDRTYYADSVKGRFTISRDTAKNTVYLQMNSLKPEDTAVYYCAKDVWRWFGYWGQGTQVTVSS | high polyreactivity

====

# Assay Method Text: yeast display, Sf9 membrane polyspecificity reagent, FACS + sequencing; frameworks hold sequencing errors

Entry Sequence | polyreactivity (PSR sort gate)
QVQLVESGGGLVQAGGSLRLSCAASGSTFFKNAMGWYRQAPGKERELVAAISTGGGSTTYADSVKGRFTISRDNAKNTVYLQMNSLKPEDTAVYYCAAVTLSSTYGGHDYWGQGTQVTVSS | high polyreactivity
QVQLVESGGGLVQAGGSLRLSCAASGFIFGWYAMGWYRQAPGKERELVAAISRSGGSTYYADSVKGRFTISRDNAMNTVYLQMNCLKPEDTAVYYCAAQRSYAYEYWGQGTQVTVSS | high polyreactivity
QVQLVESGGGLVQAGGSLRLSCAASGSTVSPNAMGWDRPAPGKERELVAAITYRGANTYYADSVKGRFTISRDNAKNTVYLQMNSLKPEDTAVYYCAATYGSWISLRFYWGQGTQVTVSS | low polyreactivity
QVQLVESVGGLVQAGGTLRLSCAATEGTIRSNAMGWYRQAPGKESELVAAISRGGSTYYADSVKGRFTISRDNAKNTVYLQMNSLKPEDTAVYYCNVAYYRSGHDNDYWGQGTQVTVSS | high polyreactivity
QVQLVESGGGLVQAGGSLRLSCAASGRIFAFYAMGWYRQAPGKEREFVAAITYSGGNTNYADSVKGRFTISRDNAKNTVYLQMNSLKPEDTAVYYCAAALVYGVYYQEDYWGQGTQVTVSS | low polyreactivity
QVQLVESGGGLVQAGGSLRLSCAASGRTFRYYVMGWYIQAPAKERELVARISYSAGSTYYADSVKGRFTISRDNAKKTVYFQMNSLKPEDTAVDYCNAGGNFKDYGHYYWGQCTQVTVSS | high polyreactivity
QVQLVESGAGLVQAGGSLRLSCAASGNIFRFYAMGWYRQAPGKERELVAAISYNGGRTYYADSVKGRFTISRDNAKNTVYLQMNILKPEDTAVYYCNAAGRDDAYDYWGQGTQVTVAS | high polyreactivity
QVQLVESGGGLVQAGGSLRLSCAASGFTFYHYAMGWYRQAPGKERELVAAISRSAGSTYYADSVKGRFTISRDNAKNTVYLQMNSLKPEDTAVYYCAKVLRAKNSFDYWGQGTHVTVSS | high polyreactivity
QVQLVESGGGLVQAGGSLRLSCAASGITFWNNAMGWYRQAPGKERELVATISSNGGRTYYADSVKGRFTISRDNAKNTVYLQMNSLKPEDTAVYYCNAARRAYGYNYWGQGTQVTVSS | low polyreactivity
QVQLVESGGGLVQAGGSLRLSCAASGRTFGPYAMGWYRQAPGKERELVATISSNGASTYYADSVKGRFTISRDNAKNTVYLQMNSLKPEDTAVYYCAAEFHFWGYLYDYWGQGTQVTVSS | low polyreactivity
QVQLVESGGGLVQAGGSLRLSCAASGLIFNFYAMGWYRPAPGKEREFVAAISWNAGSTYYADSVKGRFTISRDNAKNTVYLQMNSLKPEDTAVYYCNADQDYQGARPSGMDYWGQGTQVTVSS | low polyreactivity
QVQLVESGGGLVQAGGSLRLSCAASGRIFWNYAMGWYRQAPGKERELVAAITWSGGSTYADSVNGRFTISRDNAKYTVYLQMNSLKPEDTAEYYCAAAYASYKFDYWGQGTQVTVSS | low polyreactivity
QVQLVESGGGLVQAGGSLRLSCAASGFPFPDYAMGWYRQAPGKERELVAGISSTGDSTYYADSVKGRFTISRDNAKNTVYLQMNSLKPEDTAVYYCNAAQERPIIILFSKYDYWGQGTQVTVSS | low polyreactivity
QVQVVESGGGLVQAVGSLRLSCAASGRIFRGNAMGWDRQAPRKERELVAAISRRSGSTYYADSVKGRFTISRDNAKNTVYLQMNSLIPEDTAVYYCAATSSLGDFSYDSWGQGTQVTESS | high polyreactivity
QVQLVESGGGLVQAGGSLRLSCAASGSTFTNNGMGWYRQAPGKERELVATISWDGDSTYYADSVKGRFTISRDNAKNSVYLQMNSLKPEDTAVYDCAADYRLHYSYPYEVVQYEYWGQGTQVTVSS | low polyreactivity
QVQLVESGGGLVQAGGSLRLSCAASGRIFYIYAMGWFRQAPGKERELVAAITNGGSTNYADSVKGRFTISRDNAKNTVYLQMNSLKPEDTAVYYCAASVGTYAYARTVYRYDYWGQGTQVTVSS | low polyreactivity
QVQLVESGGGLVQAGGSLRLSCAASGITFDHYVMGWYRQAPGKERELVAAISRRGGSTYYADSVKGRFTISRDNAKNTVYLQMNSLKPEDTAVYYCAADSSKHIGYDSWGQGTQVTVSS | high polyreactivity
QVKLEESGGGLVQAGGSISLSCAASGSIFFWYTMGCYRQAPGKERELVATITGSGSSTTYADSVKGRFTISRDNAKNTVYLQMNSLKPEDTAVYYCAAADIIDHSFTYDYWGQGTQVTVSS | low polyreactivity
QVQLVESGGVLVQAGGSLRLSCAASGRIFWLNAMGWYRQAPGKEREFVASITYGSDSTYYADSVKGRFTISRDNAKNTVYLQMNSRTPEDTAVYYCNREGWHYGPYGYWGQGTQVTVSS | low polyreactivity
QVQLVESGGGLVQAGGSLRLSCAASGITFDNNAMGWYRQAPGKEREFVADIDGSGGSTYYADSVKGRFTISRDNAKNTVYLLMNCLKPEDTAVYYCAVVVYYYTYHYWGQGTQVTVSS | low polyreactivity
QVQLVESGGGLVQAGGSLRLSCAASGSIFGRYAMGWYRQAPGKERELVAAISSSGGRTYYADSVNGRFTISRDNAKNTVYLQMNSLKPEDTAVYYCNAGTPYRGDYWGQGTQVTVSS | high polyreactivity
